assay.protocol: NCI Yeast Anticancer Drug Screen. Data for the sgs1 mgt1 strain (AID 161);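 further: 0% = growth of cultures given vehicle only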
condition.context: S. cerevisiae sgs1 mgt1 strain, at 50.0 µM (retest, dose inferred, filed as 5.0), hits give high values
Compounds without any hit were thinned out: in the full panel of roughly 79,000, 15% have a hit.
measured.quantity: growth inhibition (%)
Entry rule: numbers only, all in %.

Consider the worked cases shown below.
C=C(C)/C([O-])=N/[N+](C)(C)CC(O)CCCCCCCCCCCC (stereo not given): 99
Cc1c(N=Nc2c(S(=O)(=O)O)cc3cc(S(=O)(=O)O)c(N=Nc4c(C)n(C)n(-c5ccccc5)c4=O)c(O)c3c2O)c(=O)n(-c2ccccc2)n1C: 26
C/C(=N\NC(=S)N1CCN(C2CCCCC2)CC1)c1ccccn1: 98

Look at this compound and give its reported growth inhibition. CN(c1ccc(Cl)cc1)S(=O)(=O)c1cccc([N+](=O)[O-])c1
62

What do we get for Cc1cc2c(Br)cc(Br)c(O)c2nc1C(=O)c1ccccc1 ?
90

* * *

assay.protocol: NCI Yeast Anticancer Drug Screen. Data for the rad50 strain (AID 155);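 further: 0% = growth of vehicle-only cultures of the same strain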
condition.context: S. cerevisiae rad50 strain growth inhibition; at 5.0 µM (retest, dose inferred, filed as 0.5); hits give high values
Procedure: Growth inhibition of yeast strains with defined genetic alterations is measured as a screen for potential anti-cancer activity. Selected strains with alterations in DNA damage repair or cell cycle control were exposed to compounds and growth inhibition was measured relative to vehicle treated controls. The strain used in this assay is rad50
This is part of a sample that, as a whole, favours compounds with a hit. Of some 79,000 tested, about 15% had one in any assay.
Binary call on growth inhibition: rule met from 10% upward, rule not met beneath that.

Illustrative cases are given below, each with its answer.
CCC(=O)C(CCN(CC)CC)(CCN(CC)CC)c1ccccc1: rule not met
ClC1=C(Cl)C(Cl)(Cl)C(Cl)(Cl)C1(Cl)Cl: rule met
CC(C)SC(=S)Nc1ccc(Cl)cc1: rule not met
CCC[CH2][Sn]([CH2]CCC)([O]N(C)C(=O)c1ccc(Br)cc1)[O]N(C)C(=O)c1ccc(Br)cc1: rule met
CS(=O)(=O)c1nnnn1-c1ccccc1: rule not met
COc1ccc2c(c1)C1(C)CCCC(C)(C(=O)O)C1CC2 (stereo not drawn): rule not met
O=C(Nc1ccccc1)c1ccccc1O: rule not met
Cn1cnc(=S)c2[nH]cnc21: rule not met
CCCCC(O)(c1ccccc1)C(O)(c1ccccc1)c1c(F)c(F)c(F)c(F)c1F (stereo not drawn): rule met
N#CC(C(=O)C(=O)Nc1ccc(Cl)cc1)c1c(Cl)cccc1Cl (stereo not drawn): rule met

Tell me whether growth inhibition is at least 10% here: OCC(c1ccccc1)c1ccccc1
rule met

Same again, this time with COc1ccc(C2C3=C(CCCC3=O)Oc3cc4c(cc32)OCO4)c(OC)c1 (stereo not drawn)
rule met

Repeat with CCOC(=O)CC1=NC(=Nc2ccc(Cl)c(Cl)c2)SC1
rule not met

Let us now turn to CC(=O)O[C@@H]1CO[C@H]2O[C@H]3[C@@H](C(C=O)=C[C@H](O)[C@@H]4C5=C(C(C)C)CC[C@]5(C)CC[C@@]34C)[C@@]2(O)C1=O
rule met

What would you report for SCCc1ccccn1 ?
rule not met

Same question, COC(=O)C12CCC(C)(C)CC1C1=CCC3C4(C)CC(O)C(O)C(C)(C(=O)OC)C4CCC3(C)C1(CO)CC2 (stereo not drawn) this time
rule met

Again, but for CCCCCCc1c(Cl)nc(Cl)nc1Cl
rule not met

Field entry: C(=N\Nc1c2ccccc2nc2ccccc12)/c1ccc2c(c1)OCO2
rule not met

// repeat for Cn1c(=O)c2c(nc(CCCCCCCc3nc4c(c(=O)n(C)c(=O)n4C)n3C)n2C)n(C)c1=O and report
rule not met

Try the compound CCCCN(C)N=Nc1c(C(N)=O)n[nH]c1C(C)C
rule met

* * *

Listed below: growth inhibition values for each entry.
assay.protocol: NCI Yeast Anticancer Drug Screen. Data for the mlh1 rad18 strain (AID 175)
condition.context: S. cerevisiae mlh1 rad18 strain growth inhibition; at 50.0 µM (retest, dose inferred, filed as 5.0); hits give high values
This is part of a sample that, as a whole, favours compounds with a hit. Of some 79,000 tested, about 15% had one in any assay.
API: value field is a number in %; no unit string.

Some molecules with recorded growth inhibition:
O=C(NCCc1c(-c2ccccc2)[nH]c2ccccc12)C(F)(F)C(F)(F)F: 23
O=[N+]([O-])c1cc(C(F)(F)F)ccc1SSc1ccc(C(F)(F)F)cc1[N+](=O)[O-]: 88
Cc1ccc(N=Nc2c(-c3ccccc3)nn(C(=S)S)c2-c2ccccc2)cc1: 34

Entry CN(C)c1ccc2c(NCCCCCCNc3ccnc4cc(N(C)C)ccc34)ccnc2c1 has what growth inhibition?
95

Query C/C(=N/NC(=O)c1ccccc1S(N)(=O)=O)C(CN1CCCCC1)C(C1=C(O)C2C=CC=CC2OC1=O)c1ccccc1 (stereo not drawn) next
22

Thanks! And CCOC(=O)CSC(=S)Nc1ccc(Cl)cc1 ?
98

Follow-up item: CCOC(=O)c1cnn(-c2ccccc2)c1N
98

// next record O=C(N/C(=C\c1nc2ccccc2s1)c1ccccc1O)c1ccccc1
37

// same read-out, input: COc1cccc(/C=C2\CCC(CN(C)C)C2=O)c1 (stereo not drawn)
99

And then CCCn1c(=O)c2ccccc2[n+]2c(-c3ccc([N+](=O)[O-])cc3)csc12 , what is it?
85

Next up: c1ccc([P+](c2ccccc2)(c2ccccc2)C2c3ccccc3-c3ccccc32)cc1
98

Queued: COC(=O)C1C(c2ccccc2)=N[C@@H](c2ccccc2)[C@H]1C(=O)OC (stereo partly drawn)
0

Request: COc1ccc(C(=O)[O][Sn]([c]2ccccc2)([c]2ccccc2)[c]2ccccc2)c(OC)c1OC
99

Quick one: CCC(=O)Oc1ccc(-c2ccccc2)cc1Cl
98

# iterate: O=C(OC1C2CCC2C2CC21)c1ccc([N+](=O)[O-])cc1[N+](=O)[O-] (stereo not drawn)
98

What about CNc1nc(N)nc(N(C)c2ccc(Br)cc2)c1N=O ?
79

Same question, C#CCNC(C)(C)C this time
1

# iterate: N#CC(C(=O)C(=O)Nc1ccc(Cl)cc1)c1c(Cl)cccc1Cl (stereo not drawn)
3

What do we get for O=C(NN=C1CCCCC1)c1ccc([N+](=O)[O-])cc1 ?
7

* * *

assay.protocol: NCI Yeast Anticancer Drug Screen. Data for the mlh1 rad18 strain (AID 175)
condition.context: S. cerevisiae mlh1 rad18 strain growth inhibition; at 50.0 µM
This is part of a sample that, as a whole, favours compounds with a hit. Of some 79,000 tested, about 15% had one in any assay. Calls of active or inactive are those of the source. Cut-off read from the data, not from the text of the source: active = growth inhibition above about 70%; inactive = the rest.
Entry note: the call must match one of T for active, F for inactive

Cc1cccc(/C=N\OCCc2ccccc2)n1: F
COC1/C=C\C=C(/C)C(=O)Nc2cc3nc4cc(Br)ccc4oc-3c(c2=O)CC(C)CC(OC)C(O)C(C)/C=C(\C)C1OC(N)=O (stereo not drawn): T
C#CC(CC(C)CC(C)(C)C)NC (stereo not drawn): T
O=C(Oc1ccc(Cl)cc1)Oc1ccc(Cl)cc1: F
O=S1(=O)CCN(c2ccccc2CC(c2c[nH]c3ccccc23)c2c[nH]c3ccccc23)CC1: T

What was the test verdict on CC(C)OC1=C(Cl)C(=O)c2c(cccc2[N+](=O)[O-])C1=O ?
T

Ok, now Cc1c(N=Nc2cccc(F)c2)c(-c2ccccc2)nn1C(N)=S
T

Input COC(=S)S
F

* * *

assay.protocol: NCI Yeast Anticancer Drug Screen. Data for the bub3 strain (AID 167)
condition.context: S. cerevisiae bub3 mutant strain, at 50.0 µM, hits give high values
The panel holds about 79,000 compounds, 15% with a hit somewhere; the sample as a whole holds those more often.
// no (0) strictly below 70% in growth inhibition; yes (1) otherwise

Check out these entries, answers already filled in.
CCN(CC)P(=S)(c1ccccc1CCP(=S)(c1ccccc1)c1ccccc1)N(CC)CC: no (0)
CCN(CC)CCC(=O)c1ccc2c3c(n(C)c2c1)CCCC3: yes (1)
NC(=S)N/N=C1\CCCCc2ccccc21: yes (1)

Does CC(=O)OC1CCC2(C)C(=CCC3C2CCC2(C)C3CC(C(N)=O)C2C(C)=O)C1 (stereo not given) have a reported growth inhibition of at least 70%?
no (0)

Would you kindly repeat that for CC1CCC(=NNC(N)=O)CC1 (stereo not given) ?
no (0)

Ok, now Cc1nn(C(=S)S)c(C)c1N=Nc1cccc(F)c1
yes (1)

Please give the result for Cc1ccc2c(c1)C(O)(c1ccccc1)C(c1ccccc1)C(c1ccccc1)O2 (stereo not given) too.
yes (1)

Now consider CC(C)N1C(=O)C=CC1=O and answer again.
no (0)

Item: CCOC(=O)c1ccc(O)c(C=O)c1
yes (1)

* * *

assay.protocol: NCI Yeast Anticancer Drug Screen. Data for the sgs1 mgt1 strain (AID 161);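 further: 0% = growth of cultures given vehicle only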
condition.context: S. cerevisiae sgs1 mgt1 strain, at 50.0 µM, hits give high values
Compounds without any hit were thinned out: in the full panel of roughly 79,000, 15% have a hit.
measured.quantity: growth inhibition (%)
Give just the numeric value; % need not be written.

A selection of reference data follows.
CCCCCCC[n+]1ccc(C(=O)c2ccccc2)cc1: 99.5
CC(=O)OC1C(O)C(C)OC(OC(=O)C2CCC3C(C2)OC2(CC(OC(=O)/C=C/c4ccccc4)C(C)CO2)C32CO2)C1OC1OC(C)C(O)C(O)C1O (stereo not given): 47.1
COC1OC2=CCC3C(=O)NC(=O)C3C2[C@H](OCc2ccccc2)C1OCc1ccccc1 (stereo not given in full): 98.8
COC1=C2C[C@@H](C)C[C@@H](OC)[C@@H](O)[C@H](C)/C=C(\C)[C@@H](OC(N)=O)[C@H](OC)/C=C\C=C(/C)C(=O)NC(=CC1=O)C2=O: 91.5
O=C1C(Cl)=C(c2ccccc2)C1Cl (stereo not given): 99.7

// lookup growth inhibition for CCN(CC)CCOc1ccc(C=C2c3ccccc3-c3ccccc32)cc1
99.3

Likewise for Cc1cc(C(O)(c2cc(C)c(O)c(C(=O)O)c2)c2cc(C)c(O)c(C(=O)O)c2)cc(C(=O)O)c1O ?
5.35

Please answer likewise for CSC(=S)NN=C1CCCC1
89.9

Query CCn1c(=O)cc2n(C)c3ccccc3n2c1=O next
-5.15

// repeat for N#CSCC(=O)c1ccc2ccccc2c1 and report
93.5
